Attribution: PubChem BioAssay (Tox21)

ASSAY: Caspase-3/7 induction in CHO-K1 cells by small molecules, qHTS cell viability counter screen (AID 1346979); also: nearly all actives have a fitted effect of over 35% in size
PROTOCOL_CONDITIONS: CellTiter-Fluor fluorescence, 17 h; series mostly up to 92.4 µM
Records with an inconclusive call do not appear. Calls of active or inactive are those of the source. Calls follow the shape of the dose curve; as a rule, active = well fitted cell-killing curve with a large enough effect in the repeat runs; inconclusive = weak or mixed curves, or effect the other way; inactive = no such curve, though single readings can be large or run the other way.
Your reply should match one of these outcome classes. active, inactive

INPUT: What classification did O=C(Nc1cccc(C(F)(F)F)c1)c1cc(Br)cc(Br)c1O end up with in this test?
OUTPUT: active

INPUT: What classification did c1cc(C(c2ccc(OCC3CO3)cc2)c2ccc(OCC3CO3)cc2)ccc1OCC1CO1 (stereo not drawn) end up with in this test?
OUTPUT: active

INPUT: What classification did N=C1C=CC(=C(c2ccc(N)cc2)c2ccc(N)cc2)C=C1 end up with in this test?
OUTPUT: active

INPUT: What classification did CCC1=C[C@@H]2CN(C1)Cc1c([nH]c3ccccc13)[C@@](C(=O)OC)(c1cc3c(cc1OC)N(C)[C@H]1[C@@](O)(C(=O)OC)[C@H](OC(C)=O)[C@]4(CC)C=CCN5CC[C@]31[C@@H]54)C2 end up with in this test?
OUTPUT: active

INPUT: What classification did CCCCCOc1ccccc1/C(=C\SC)n1ccnc1 end up with in this test?
OUTPUT: active

INPUT: What classification did CCCC(c1cc(C(C)(C)C)c(O)cc1C)c1cc(C(C)(C)C)c(O)cc1C end up with in this test?
OUTPUT: active

INPUT: What classification did COc1cccc2c1C(=O)c1c(O)c3c(c(O)c1C2=O)C[C@@](O)(C(=O)CO)C[C@@H]3O[C@H]1C[C@H](N)[C@H](O[C@@H]2CCCCO2)[C@H](C)O1 end up with in this test?
OUTPUT: active

INPUT: What classification did COc1cc(-c2ccc(N=C=O)c(OC)c2)ccc1N=C=O end up with in this test?
OUTPUT: inactive

====

ASSAY: qHTS assay to identify small molecule agonists of the estrogen receptor beta (ER-beta) signaling pathway - cell viability counter screen (AID 1259380); also: nearly all actives have a fitted effect of over 30% in size; also: potency is read from the fitted curve at half-maximal effect
PROTOCOL_CONDITIONS: ER-beta-bla HEK293T viability, CellTiter-Glo luminescence, 16 h; series mostly up to 92.4 µM
Inconclusive results are not listed. Calls of active or inactive are those of the source. The call rests on the fitted dose curve; in most records, active means well fitted cell-killing curve with a large enough effect in the repeat runs; inconclusive means weak or mixed curves, or effect the other way; inactive means flat fitted curve, though single readings scatter.
RECORDED_ENDPOINT: Potency

Worked cases, answers included:
CCCCCCCC/C=C/CCCCCCCC1=NCCN1CCO 27.3 µM (active)
COc1cc(/C=C/C(=O)O[C@H]2CC[C@]34C[C@]35CC[C@]3(C)[C@@H]([C@H](C)CCC=C(C)C)CC[C@@]3(C)[C@@H]5CC[C@H]4C2(C)C)ccc1O inactive
NC(=O)C1(N2CCCCC2)CCN(CCCN2c3ccccc3CCc3ccc(Cl)cc32)CC1 13.3 µM (active)
Cc1ccc(-n2nc(C(C)(C)C)cc2NC(=O)Nc2ccc(OCCN3CCOCC3)c3ccccc23)cc1 7.5 µM (active)

Now look at this entry.
INPUT: Sample Cc1onc(-c2ccccc2Cl)c1C(=O)N[C@@H]1C(=O)N2[C@@H]1SC(C)(C)[C@@H]2C(=O)O — what was its Potency?
OUTPUT: inactive

====

ASSAY: qHTS assay to identify small molecule agonists of the progesterone receptor (PR) signaling pathway - cell viability counter screen (AID 1346799); also: nearly all actives have a fitted effect of over 45% in size; also: potency is read from the fitted curve at half-maximal effect
PROTOCOL_CONDITIONS: PR-UAS-bla HEK293T viability, CellTiter-Glo luminescence, 16 h; series mostly up to 92.4 µM
Results filed as inconclusive are left out. The source made the active and inactive calls. Calls come from the whole dose curve.
RECORDED_ENDPOINT: Potency

Worked cases, answers included:
COMPOUND	RECORDED_ENDPOINT	ASSAY_VALUE
C[C@H]1[C@H]2CC[C@H]3[C@@H]4CC=C5C[C@@H](N(C)C)CC[C@]5(C)[C@H]4CC[C@]23CN1C	Potency	inactive
CSc1ccc2c(c1)C(N1CCN(C)CC1)Cc1ccccc1S2 (centres undefined)	Potency	33.5 µM (active)
CCN(C(=O)N(CC)c1ccccc1)c1ccccc1	Potency	inactive
Nc1ccc2c3c(cccc13)-c1ccccc1-2	Potency	inactive
N#CSc1ccc(N)c([N+](=O)[O-])c1	Potency	inactive
CCCCCCCCCCC=O	Potency	inactive
CCCCCOC(=O)CCCC	Potency	inactive
C[C@@H](NCCCc1cccc(C(F)(F)F)c1)c1cccc2ccccc12	Potency	23.7 µM (active)
CCCCCCCCOC(=O)c1ccc(O)cc1	Potency	inactive
CN(C)[C@@H]1C(=O)C(C(N)=O)=C(O)[C@@]2(O)C(=O)C3=C(O)c4c(O)ccc(Cl)c4[C@@H](O)[C@H]3C[C@@H]12	Potency	inactive

Now look at this entry.
INPUT: Sample CC(C)(C)NC(=O)[C@@H]1C[C@@H]2CCCC[C@@H]2CN1C[C@@H](O)[C@H](Cc1ccccc1)NC(=O)[C@H](CC(N)=O)NC(=O)c1ccc2ccccc2n1 — what was its Potency?
OUTPUT: 39.1 µM (active)
